FYI, the data here is from PubChem BioAssay AID1963867.

Test system: KRAS-mutant PDC tumor spheroid with HUVEC/MSC, viability;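 note: spheroids exposed to agents for seven days before reading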
experimentSummary: Anticancer human tumor 327498-153-R-J2-PDC patient-derived uterine carcinosarcoma cell line growth inhibition [KRAS2]
measurementParameters: second compound 3.16 µM; first compound 1 µM; hits give low values
Each entry belongs to exactly one class, chosen by where its viability, T/C falls: bottom end = under 0.7%, midrange = from 0.7% up to 10%, top end = 10% and over

Consider the worked cases shown below.
compound: COc1cc2nccc(Oc3ccc(NC(=O)C4(C(=O)Nc5ccc(F)cc5)CC4)cc3)c2cc1OC + CC1OCC2(CCN(c3cnc(Sc4ccnc(N)c4Cl)c(N)n3)CC2)C1N
className: top end
//
compound: CC(=O)OC12COC1CC(O)C1(C)C(=O)C(O)C3=C(C)C(OC(=O)C(O)C(NC(=O)OC(C)(C)C)c4ccccc4)CC(O)(C(OC(=O)c4ccccc4)C21)C3(C)C (stereo not given) + C=CC(=O)N1CCN(c2nc(=O)n(-c3c(C)ccnc3C(C)C)c3nc(-c4c(O)cccc4F)c(F)cc23)C(C)C1
className: top end
//
compound: CCNC(=O)CC1N=C(c2ccc(Cl)cc2)c2cc(OC)ccc2-n2c(C)nnc21 (stereo not given) + C=CC(=O)N1CCN(c2nc(=O)n(-c3c(C)ccnc3C(C)C)c3nc(-c4c(O)cccc4F)c(F)cc23)C(C)C1
className: top end
//
compound: COC(=O)c1ccc2c(C(=Nc3ccc(N(C)C(=O)CN4CCN(C)CC4)cc3)c3ccccc3)c(O)[nH]c2c1 + C=CC(=O)N1CCN(c2nc(OCC3CCCN3C)nc3c2CCN(c2cccc4cccc(C)c24)C3)CC1CC#N
className: bottom end
//
compound: CC1OCC2(CCN(c3cnc(Sc4ccnc(N)c4Cl)c(N)n3)CC2)C1N (stereo not given) + CNCc1ccccc1-c1csc(C(C)Nc2nc(C)nc3cc(OC)c(OC)cc23)c1
className: bottom end
//
compound: Cn1nccc1Nc1nccc(-c2cc3c(s2)C(C)(C)N(CCN2CCOCC2)C3=O)n1 + CC1OCC2(CCN(c3cnc(Sc4ccnc(N)c4Cl)c(N)n3)CC2)C1N
className: top end

Kindly review the next compound as well.
Kindly state the category for this compound: CCNC(=O)CC1N=C(c2ccc(Cl)cc2)c2cc(OC)ccc2-n2c(C)nnc21 (stereo not given) + C=CC(=O)N1CCN(c2nc(OCC3CCCN3C)nc3c2CCN(c2cccc4cccc(C)c24)C3)CC1CC#N
bottom end
